- target-system: S1P1 (Homo sapiens)
- Construct: host or cells: HUVEC (pooled donors)
- method-notes: Label-free impedance assay in HUVEC, first stimulation (early and late BNCI response)
- Type: cell-based
- applied-conditions: BNCI curve minimum, early response, arithmetic mean

{"compound": "CCc1cc(/C(C)=N/OCc2ccc(C3CCCCC3)c(C(F)(F)F)c2)ccc1CN1CC(C(=O)O)C1 [Siponimod, siponimod]", "target-system": "S1P1 (Homo sapiens)", "Early phase Min": 0.012}
{"compound": "Cc1cc(-c2nc3cnc(Oc4cccc(Cl)c4)nc3o2)cc(C)c1OCC(=O)O [SAR247799]", "target-system": "S1P1 (Homo sapiens)", "Early phase Min": 0.101}
{"compound": "CC(C)Oc1ccc(-c2nc(-c3cccc4c3CC[C@@H]4NCCO)no2)cc1C#N [Ozanimod, ozanimod]", "target-system": "S1P1 (Homo sapiens)", "Early phase Min": 0.188}
{"compound": "CCC/N=C1\\S/C(=C\\c2ccc(OC[C@H](O)CO)c(Cl)c2)C(=O)N1c1ccccc1C [Ponesimod, ponesimod]", "target-system": "S1P1 (Homo sapiens)", "Early phase Min": 0.175}

###

- target-system: S1P1 (Homo sapiens, UniProt P21453)
- Construct: host or cells: HUVEC (pooled donors)
- Sequence (P21453 whole entry): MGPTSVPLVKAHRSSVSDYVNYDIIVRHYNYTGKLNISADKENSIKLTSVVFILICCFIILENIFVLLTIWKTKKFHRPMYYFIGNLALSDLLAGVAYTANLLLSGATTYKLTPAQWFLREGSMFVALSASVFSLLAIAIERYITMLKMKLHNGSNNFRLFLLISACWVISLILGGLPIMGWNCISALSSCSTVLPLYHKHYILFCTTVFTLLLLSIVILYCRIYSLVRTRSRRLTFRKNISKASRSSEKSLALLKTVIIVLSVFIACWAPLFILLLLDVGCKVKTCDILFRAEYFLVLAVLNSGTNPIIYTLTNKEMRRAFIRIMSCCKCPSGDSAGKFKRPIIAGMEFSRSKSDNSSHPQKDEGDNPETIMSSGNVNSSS
- method-notes: Desensitization of S1P-induced BNCI response in HUVEC (second stimulation with 80 nM S1P)
- Type: cell-based
- applied-conditions: arithmetic mean
Recorded Desensitization Hill slope for the following compounds
quantity-name: Desensitization Hill slope

{"structure-notation": "CCc1cc(/C(C)=N/OCc2ccc(C3CCCCC3)c(C(F)(F)F)c2)ccc1CN1CC(C(=O)O)C1", "recorded-result": "−1.0"}
{"structure-notation": "Cc1cc(-c2nc3cnc(Oc4cccc(Cl)c4)nc3o2)cc(C)c1OCC(=O)O", "recorded-result": "−1.9"}
{"structure-notation": "CCC/N=C1\\S/C(=C\\c2ccc(OC[C@H](O)CO)c(Cl)c2)C(=O)N1c1ccccc1C", "recorded-result": "−0.9"}
{"structure-notation": "CC(C)Oc1ccc(-c2nc(-c3cccc4c3CC[C@@H]4NCCO)no2)cc1C#N", "recorded-result": "−1.5"}

###

- target-system: S1P1 (Homo sapiens, UniProt P21453)
- Construct: host or cells: HUVEC (pooled donors)
- method-notes: Desensitization of S1P-induced BNCI response in HUVEC (second stimulation with 80 nM S1P)
- Assay type: cell-based
- applied-conditions: S1P-induced BNCI response curve minimum, arithmetic mean

{"compound": "Cc1cc(-c2nc3cnc(Oc4cccc(Cl)c4)nc3o2)cc(C)c1OCC(=O)O [SAR247799]", "Desensitization Min": 1.1}
{"compound": "CCC/N=C1\\S/C(=C\\c2ccc(OC[C@H](O)CO)c(Cl)c2)C(=O)N1c1ccccc1C [Ponesimod, ponesimod]", "Desensitization Min": "−38.2"}
{"compound": "CC(C)Oc1ccc(-c2nc(-c3cccc4c3CC[C@@H]4NCCO)no2)cc1C#N [Ozanimod, ozanimod]", "Desensitization Min": "−13.9"}
{"compound": "CCc1cc(/C(C)=N/OCc2ccc(C3CCCCC3)c(C(F)(F)F)c2)ccc1CN1CC(C(=O)O)C1 [Siponimod, siponimod]", "Desensitization Min": "−16.3"}

###

- System: human S1P1
- method-notes: β-arrestin recruitment assay in PathHunter cells overexpressing human S1P1
- Type: cell-based
- applied-conditions: read-out: IC50 inhibition of β-arrestin recruitment
pIC50: −log10 of the molar value.

{"structure-notation": "O=C(NCc1ccc2onc(NCc3ccccc3C(F)(F)F)c2c1)c1ccc2[nH]ncc2c1", "pIC50": 5.96}

###

- target-system: recombinant human GRK2 (Homo sapiens, UniProt P25098)
- Sequence (P25098 whole entry): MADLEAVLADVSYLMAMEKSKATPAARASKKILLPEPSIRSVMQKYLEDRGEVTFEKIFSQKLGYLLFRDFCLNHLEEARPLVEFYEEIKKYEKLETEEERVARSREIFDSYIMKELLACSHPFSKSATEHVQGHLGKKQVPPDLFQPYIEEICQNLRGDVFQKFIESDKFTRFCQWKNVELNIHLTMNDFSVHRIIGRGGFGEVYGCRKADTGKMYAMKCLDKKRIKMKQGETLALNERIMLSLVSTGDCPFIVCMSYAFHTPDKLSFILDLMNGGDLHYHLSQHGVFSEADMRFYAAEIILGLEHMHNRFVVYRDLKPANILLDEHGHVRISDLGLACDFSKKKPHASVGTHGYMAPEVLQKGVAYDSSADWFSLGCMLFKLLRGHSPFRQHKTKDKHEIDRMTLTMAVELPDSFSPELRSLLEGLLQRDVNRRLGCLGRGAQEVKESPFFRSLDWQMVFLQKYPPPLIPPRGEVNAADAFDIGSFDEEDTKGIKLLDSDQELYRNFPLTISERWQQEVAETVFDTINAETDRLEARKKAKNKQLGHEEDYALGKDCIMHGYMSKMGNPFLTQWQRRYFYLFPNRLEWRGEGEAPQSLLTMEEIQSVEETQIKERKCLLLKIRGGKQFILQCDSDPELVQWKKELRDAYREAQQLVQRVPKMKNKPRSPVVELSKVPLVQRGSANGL
- method-notes: 33P-ATP flash plate kinase assay
- applied-conditions: 3 µM ATP, biotin-[…] substrate
pIC50: −log10 of the molar value.
quantity-name: pIC50

{"structure-notation": "O=C(NCc1ccc2onc(NCc3ccccc3C(F)(F)F)c2c1)c1ccc2[nH]ncc2c1", "recorded-result": 7.36}
